Test system: Candida albicans
experimental protocol: Antifungal activity against Candida albicans ATCC 10231 after 48 to 72 hrs by broth microdilution method
Format: functional
Active and inactive are the calls of the source. How the calls were made is not given here.
property measured: MIC80

INSERT INTO measurements (smiles_string, property_measured, endpoint_value) VALUES
  ('COc1ccc(/N=C/C2C(=O)NC(=O)NC2=O)cc1', 'MIC80', 'inactive'),
  ('O=C1NC(=O)C(/C=N/NS(=O)(=O)c2ccccc2)C(=O)N1', 'MIC80', 'inactive'),
  ('O=C1NC(=O)C(/C(=N/Nc2ccc([N+](=O)[O-])cc2[N+](=O)[O-])c2ccccc2)C(=O)N1', 'MIC80', 'inactive'),
  ('CN(C)c1ccc(C=C2C(=O)NC(=O)NC2=O)cc1', 'MIC80', '62 µg/mL'),
  ('O=C1NC(=O)C(/C=N/Nc2ccccc2)C(=O)N1', 'MIC80', '4 µg/mL');

Field: next compound
Prompt line: Query (compound): "O=C1NC(=O)C(=Cc2ccc(O)cc2)C(=O)N1" ; field requested: MIC80
Response line: inactive

---

experimental protocol: Cytotoxicity against african green monkey Vero cells assessed as cell viability at 2 to 200 ug/ml after 24 hrs by MTT assay
Type: cell-based
conditions used: chlorocebus sabaeus, read-out: Activity
property measured: viability at 24 h
Write the numeric value and append its unit.

INSERT INTO results (smiles_string, endpoint_value) VALUES
  ('C/C(=N\Nc1ccc([N+](=O)[O-])cc1)C1C(=O)NC(=O)NC1=O', '35%');

Attention now turns to another entry.
Prompt line: I am curious: what viability at 24 h value has been reported for "C/C(=N\Nc1ccccc1)C1C(=O)N(C)C(=O)N(C)C1=O" ?
Response line: 35%

---

Test system: Candida albicans
experimental protocol: Antifungal activity against Candida albicans ATCC 10231 after 48 to 72 hrs by broth microdilution method
Type: functional
Calls of active or inactive are those of the source. The rule behind the calls is not given here.
property measured: MIC80

Observe how each entry below is paired with its result.
INSERT INTO results (smiles_string, system_under_test, endpoint_value) VALUES
  ('O=C1NC(=O)C(/C=N/n2cnnc2)C(=O)N1', 'Candida albicans', 'inactive'),
  ('C/C(=N\Nc1ccc([N+](=O)[O-])cc1[N+](=O)[O-])C1C(=O)N(C)C(=O)N(C)C1=O', 'Candida albicans', 'inactive'),
  ('O=C1NC(=O)C(=Cc2ccco2)C(=O)N1', 'Candida albicans', 'inactive'),
  ('COc1ccc(C(=O)N/N=C/C2C(=O)NC(=O)NC2=O)cc1', 'Candida albicans', 'inactive'),
  ('C/C(=N\N)C1C(=O)NC(=O)NC1=O', 'Candida albicans', 'inactive');

Turning now to a further record.
Prompt line: // query MIC80 value for entry "Cc1ccc(S(=O)(=O)N/N=C/C2C(=O)NC(=O)NC2=O)cc1"
Response line: 16 µg/mL

---

Tested on: Candida albicans
experimental protocol: Antifungal activity against Candida albicans ATCC 10231 after 48 to 72 hrs by broth microdilution method
Assay type: functional
The source made the active and inactive calls. The rule behind the calls is not given here.
property measured: MIC80

Solved cases below.
INSERT INTO assay_data (smiles_string, property_measured, endpoint_value) VALUES
  ('O=C1NC(=O)C(=Cc2ccc3ccccc3c2)C(=O)N1', 'MIC80', '125 µg/mL'),
  ('CN1C(=O)C(/C(=N/Nc2ccc(C(=O)O)cc2)c2ccccc2)C(=O)N(C)C1=O', 'MIC80', 'inactive'),
  ('C/C(=N\Nc1ccccc1)C1C(=O)NC(=O)NC1=O', 'MIC80', '2 µg/mL'),
  ('C/C(=N\NS(=O)(=O)c1ccccc1)C1C(=O)NC(=O)NC1=O', 'MIC80', 'inactive'),
  ('O=C1NC(=O)C(=Cc2ccoc2)C(=O)N1', 'MIC80', 'inactive');

Kindly consider the entry below.
Prompt line: Lab request: please report MIC80 under test system Candida albicans for "CN1C(=O)C(=Cc2ccc(N(C)C)cc2)C(=O)N(C)C1=O"
Response line: inactive
